# assay: Toxicity of Lu 9-110 (LD10, LD50)
# Assay type: in vivo
# condition-info: mouse, in vivo, ip, i.p. suspension, accumulated dose (independent of schedule)
measured-parameter: LD50

Please look at this molecule and report its LD50: CC(CN(C)C)C(CNC(N)=O)(c1ccccc1)c1ccccc1 (stereo not shown) [Lu 9-110] ~1400 mg/kg

* * *

# assay: Toxicity of Lu 9-110 (LD10, LD50)
# Type: in vivo
# condition-info: mouse, in vivo, ip, i.p. solution, single dose
measured-parameter: LD50

Please look at this compound and report its LD50: CC(CN(C)C)C(CNC(N)=O)(c1ccccc1)c1ccccc1 (stereo not shown) [Lu 9-110] ~150 mg/kg
